// data source = paper PMC3823697

substances and their reported Deferred Antagonism Zone Area
tested on: S. aureus RF122; assay: Deferred antagonism assay of producer strains; format: cell-based, Staphylococcus aureus; settings: L. lactis NZ9800 producer spotted (approx. 3 µl) on GM17 agar, 16 h 30°C, overlaid with 0.75% agar seeded 0.5% with S. aureus RF122; area of zone minus area of spot
Ends that are not written are not given here.
ASSAY METRIC: Deferred Antagonism Zone Area (mm^2)

- SUBSTANCE: "Nisin A (ITSISLCTPGCKTGALMGCNMKTATCHCSIHVSK; not fully specified; Lantibiotic nisin-A; UniProt P13068 24-57, looked up) [WT, 34 amino acid lantibiotic with three dehydrated amino acids and five thioether rings; hinge N20-M21-K22, reference compound]"
  OBS VALUE: 138.31
- SUBSTANCE: "AAA: nisin A derivative with hinge region consisting of AAA (rational design) (ITSISLCTPGCKTGALMGCAAATATCHCSIHVSK; not fully specified; also: nisin-type thioether rings and dehydrated residues, not located; UniProt P13068 24-57, looked up, variant N20A M21A K22A)"
  OBS VALUE: 292.24
- SUBSTANCE: "SLS: nisin A derivative with hinge region SLS (ITSISLCTPGCKTGALMGCSLSTATCHCSIHVSK; also: nisin-type thioether rings and dehydrated residues, not located; UniProt P13068 24-57, looked up, variant N20S M21L K22S)"
  OBS VALUE: 153.93
- SUBSTANCE: "SAA: nisin A derivative with hinge region consisting of SAA (rational design) (ITSISLCTPGCKTGALMGCSAATATCHCSIHVSK; also: nisin-type thioether rings and dehydrated residues, not located; UniProt P13068 24-57, looked up, variant N20S M21A K22A)"
  OBS VALUE: 236.28
